- targetOrTestSystem: murine CCL2 (mCCL2-P8A, MCP-1) (Mus musculus, UniProt P10148, P31A)
- Sequence (P10148 24-99 P31A limits assumed): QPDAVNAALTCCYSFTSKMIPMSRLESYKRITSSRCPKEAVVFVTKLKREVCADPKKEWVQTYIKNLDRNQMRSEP
- assaySummary: intrinsic Trp fluorescence quenching titration
experimentalReadout: Kd
Phrase the answer as number then unit, nothing more needed.

## Task Output reported Kd of the compound O=C(O)[C@H]1O[C@@H](Oc2cc3oc(-c4ccccc4)cc(=O)c3c(O)c2O)[C@H](O)[C@@H](O)[C@@H]1O [BA] on murine CCL2 (mCCL2-P8A, MCP-1) (Mus musculus, UniProt P10148, P31A).
## Result 270 nM

* * *

- targetOrTestSystem: human CCL2 (hCCL2-WT, MCP-1) (Homo sapiens, UniProt P13500)
- Sequence (P13500 24-99): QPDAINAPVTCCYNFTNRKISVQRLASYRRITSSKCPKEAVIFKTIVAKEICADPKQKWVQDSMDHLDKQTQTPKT
experimentalReadout: Kd (nM)
Hi! Could you send only the number? It should be in nM, unit omitted.

## Task Specify reported Kd for the compound shown: O=C(O)[C@H]1O[C@@H](Oc2cc3oc(-c4ccccc4)cc(=O)c3c(O)c2O)[C@H](O)[C@@H](O)[C@@H]1O
## Result 250

* * *

- targetOrTestSystem: human CCL2 (hCCL2-P8A, MCP-1) (Homo sapiens, UniProt P13500, P31A)
- Sequence (P13500 24-99 P31A): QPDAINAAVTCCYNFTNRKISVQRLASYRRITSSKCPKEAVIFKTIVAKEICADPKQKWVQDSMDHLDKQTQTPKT
- assaySummary: intrinsic Trp fluorescence quenching titration
experimentalReadout: pKd
Quick note: pKd values are minus log10 of concentrations in mol/L.

## Task Give pKd for O=C(O)[C@H]1O[C@@H](Oc2cc3oc(-c4ccccc4)cc(=O)c3c(O)c2O)[C@H](O)[C@@H](O)[C@@H]1O [BA]
## Result 6.59
